# Ki per record follows
measurement target: UniProt:P21917
Sequence (P21917 whole entry): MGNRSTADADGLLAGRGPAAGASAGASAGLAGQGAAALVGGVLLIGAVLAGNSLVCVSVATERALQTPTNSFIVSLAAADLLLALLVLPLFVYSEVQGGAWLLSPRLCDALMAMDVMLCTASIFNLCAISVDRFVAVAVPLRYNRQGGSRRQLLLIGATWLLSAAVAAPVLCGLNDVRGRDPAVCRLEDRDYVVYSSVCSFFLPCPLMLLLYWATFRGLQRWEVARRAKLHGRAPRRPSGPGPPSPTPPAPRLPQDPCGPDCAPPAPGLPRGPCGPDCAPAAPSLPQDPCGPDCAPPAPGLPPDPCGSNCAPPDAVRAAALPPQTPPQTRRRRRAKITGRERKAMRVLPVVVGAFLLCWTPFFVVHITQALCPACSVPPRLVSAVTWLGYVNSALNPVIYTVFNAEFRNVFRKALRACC
assay explanation: Human D2-like receptor competition binding in HEK cells, D4
protocol conditions: HEK 293 cells, hD4.4
I'd appreciate it if you wrote the number followed by its unit.

These recorded examples may help you get a feel for the data.
| compound | measurement target | Ki |
| --- | --- | --- |
| O=C(NCCC(O)CN1CCN(c2cccc(Cl)c2Cl)CC1)c1ccc2c(c1)Cc1ccccc1-2 (centres unmarked) [Compound 17] | UniProt:P21917 | 16400 nM |
| O=C(NCCC(O)CN1CCN(c2cccc(Cl)c2Cl)CC1)c1ccc(-c2ccccn2)cc1 (centres unmarked) [Compound 16] | UniProt:P21917 | 4620 nM |
| COc1ccccc1N1CCN(CC(O)CCNC(=O)c2cc3ccccc3[nH]2)CC1 (centres unmarked) [Compound 35] | UniProt:P21917 | 1920 nM |
| COc1ccccc1N1CCN(CC(O)CCNC(=O)c2ccc3c(c2)Cc2ccccc2-3)CC1 (centres unmarked) [Compound 19] | UniProt:P21917 | 1230 nM |

Please find the next compound below.
Field Ki (entry COc1ccccc1N1CCN(CC(O)CCNC(=O)c2ccc(-c3ccccn3)cc2)CC1 (centres unmarked) [Compound 18] ) reads 1490 nM

###

measurement target: human dopamine D2-long (D2) receptor (Homo sapiens (Human))
Sequence (P14416 whole entry): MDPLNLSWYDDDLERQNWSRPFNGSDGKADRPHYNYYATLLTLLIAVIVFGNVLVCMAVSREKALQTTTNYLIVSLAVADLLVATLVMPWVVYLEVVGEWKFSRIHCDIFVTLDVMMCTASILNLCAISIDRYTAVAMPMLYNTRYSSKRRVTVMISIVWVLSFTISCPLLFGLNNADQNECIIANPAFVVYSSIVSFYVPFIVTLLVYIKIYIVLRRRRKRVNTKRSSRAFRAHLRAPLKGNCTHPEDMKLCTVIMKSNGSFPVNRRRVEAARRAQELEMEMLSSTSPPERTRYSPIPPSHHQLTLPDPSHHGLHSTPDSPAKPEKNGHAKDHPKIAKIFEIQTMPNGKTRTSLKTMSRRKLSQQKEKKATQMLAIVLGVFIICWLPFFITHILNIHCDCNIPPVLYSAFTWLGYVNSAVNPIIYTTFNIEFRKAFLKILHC
assay explanation: Human D2-like receptor competition binding in HEK cells, D2
protocol conditions: hD2L
Listing: Ki of selected compounds
Include the unit right after the number.

get_value(item= COc1ccccc1N1CCN(CC(O)CCNC(=O)c2ccc(-c3ccccn3)cc2)CC1 (centres unmarked) [Compound 18] , readout=Ki) returns 284 nM

Sample COc1ccc2oc(C(=O)NCCC(O)CN3CCN(c4cccc(Cl)c4Cl)CC3)cc2c1 (centres unmarked) [Compound 48] ; Ki observed: 244 nM

Record summary for COc1ccccc1N1CCN(CC(O)CCNC(=O)c2cc3cc(F)ccc3o2)CC1 (centres unmarked) [Compound 47] : reported Ki = 180 nM

Just so you know, measured Ki for O=C(NCCC(O)CN1CCN(c2cccc(Cl)c2Cl)CC1)c1ccc2c(c1)Cc1ccccc1-2 (centres unmarked) [Compound 17] came out at 319 nM

Reported Ki for CCCOc1ccccc1N1CCN(CC(O)CCNC(=O)c2cc3ccccc3[nH]2)CC1 (centres unmarked) [Compound 38] was 47.1 nM

Noted for Cc1cccc(-c2ccc(C(=O)NC/C=C/CN3CCN(c4cccc(Cl)c4Cl)CC3)cc2)n1 [Compound 10] : its Ki reads 105 nM

What the record says about O=C(NCC(O)CCN1CCN(c2cccc(Cl)c2Cl)CC1)c1ccc(-c2ccccn2)cc1 (centres unmarked) [Compound 21] : Ki is 28.4 nM

Input COc1ccccc1N1CCN(CCC(O)CNC(=O)c2ccc3c(c2)Cc2ccccc2-3)CC1 (centres unmarked) [Compound 23] . Output Ki: 68.4 nM

###

measurement target: serotonin 5HT1A receptor (Homo sapiens (Human), UniProt P08908)
Sequence (P08908 whole entry): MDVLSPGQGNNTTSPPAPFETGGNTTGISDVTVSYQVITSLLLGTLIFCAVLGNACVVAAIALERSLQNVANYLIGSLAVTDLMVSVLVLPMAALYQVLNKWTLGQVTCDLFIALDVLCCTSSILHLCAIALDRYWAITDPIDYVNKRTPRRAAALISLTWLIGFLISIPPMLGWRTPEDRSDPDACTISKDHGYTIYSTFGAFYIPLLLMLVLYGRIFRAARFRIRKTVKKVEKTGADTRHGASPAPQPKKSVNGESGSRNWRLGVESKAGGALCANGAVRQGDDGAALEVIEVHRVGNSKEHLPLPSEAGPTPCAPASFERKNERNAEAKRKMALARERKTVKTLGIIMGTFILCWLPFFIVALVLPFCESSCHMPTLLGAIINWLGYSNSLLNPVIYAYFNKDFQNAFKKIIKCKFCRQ
assay explanation: Serotonin receptor binding, 5HT1A
protocol conditions: ratio of affinities
outcome measure: 5HT1A/D3

The following compounds have reported results that may help.
| compound | result |
| --- | --- |
| O=C(NCCC(O)CN1CCN(c2cccc(Cl)c2Cl)CC1)c1ccc2c(c1)Cc1ccccc1-2 (stereo not drawn) | 1006 |
| CC(=O)OC(CCNC(=O)c1ccc(-c2ccccn2)cc1)CN1CCN(c2cccc(Cl)c2Cl)CC1 (stereo not drawn) | 10 |

Now for another entry.
Tested system serotonin 5HT1A receptor (Homo sapiens (Human), UniProt P08908); 5HT1A/D3 recorded for Cc1cccc(-c2ccc(C(=O)NC/C=C/CN3CCN(c4cccc(Cl)c4Cl)CC3)cc2)n1 was 221
